Hey, just so you know, these numbers are from patent US4684664A.

System: Candida albicans IAM 4905
Assay: Antifungal activity, agar-dilution MIC, organism No. 29
Format: cell-based
Details: Candida albicans, IAM4905; Organism No. 29, bouillon-agar; read-out: Minimum Inhibitory Concentration
Excerpt: Agar-dilution method was used for determination of the antibacterial activity and antifungal activity while using bouillon-agar culture medium, and the minimum inhibitory concentration of the specimen was expressed by μg/ml of the culture medium.
Response field label takes class 1 when MIC is strictly below 2 mg/L and class 0 in all other cases.

compound="[C-]#[N+]C12CC3(/C=C/C(=O)Nc4ccc(C(F)(F)F)cc4)OC3C1O2 (centres unmarked)" assigned_category="class 1"
compound="[C-]#[N+]C12CC3(/C=C/C(=O)Nc4cccc(O)c4)OC3C1O2 (centres unmarked)" assigned_category="class 0"
compound="[C-]#[N+]C12CC3(/C=C/C(=O)Nc4nnc(C)s4)OC3C1O2 (centres unmarked)" assigned_category="class 0"
compound="[C-]#[N+]C12CC3(/C=C/C(=O)Nc4ccc(Br)cc4)OC3C1O2 (centres unmarked)" assigned_category="class 1"
compound="[C-]#[N+]C12CC3(/C=C/C(=O)Nc4ccc(C(=O)OC)cc4)OC3C1O2 (centres unmarked)" assigned_category="class 1"
compound="[C-]#[N+]C12CC3(/C=C/C(N)=O)OC3C1O2 (centres unmarked)" assigned_category="class 0"
compound="[C-]#[N+]C12CC3(/C=C/C(=O)NC4CCCCC4)OC3C1O2 (centres unmarked)" assigned_category="class 1"
compound="[C-]#[N+]C12CC3(/C=C/C(=O)NC4C(=O)N5C(C(=O)OCC(=O)c6ccc(Br)cc6)=C(C)CSC45)OC3C1O2 (centres unmarked)" assigned_category="class 0"
compound="[C-]#[N+]C12CC3(/C=C/C(=O)N4CCOCC4)OC3C1O2 (centres unmarked)" assigned_category="class 0"
compound="[C-]#[N+]C12CC3(/C=C/C(=O)OCc4c(C)cc(C)cc4C)OC3C1O2 (centres unmarked)" assigned_category="class 1"
compound="[C-]#[N+]C12CC3(/C=C/C(=O)Nc4cccc(N)c4)OC3C1O2 (centres unmarked)" assigned_category="class 0"
compound="[C-]#[N+]C12CC3(/C=C/C(=O)Nc4cccc(OC)c4)OC3C1O2 (centres unmarked)" assigned_category="class 1"
compound="[C-]#[N+]C12CC3(/C=C/C(=O)Nc4ccc(C(=O)c5ccccc5)cc4)OC3C1O2 (centres unmarked)" assigned_category="class 1"
compound="[C-]#[N+]C12CC3(/C=C/C(=O)N[C@@H](CCC(=O)OCc4ccccc4)C(=O)OCc4ccccc4)OC3C1O2 (some centres unmarked)" assigned_category="class 0"
compound="[C-]#[N+]C12CC3(/C=C/C(=O)OCc4cc([N+](=O)[O-])ccc4O)OC3C1O2 (centres unmarked)" assigned_category="class 0"
compound="[C-]#[N+]C12CC3(/C=C/C(=O)Nc4ccccc4C(N)=O)OC3C1O2 (centres unmarked)" assigned_category="class 0"
compound="[C-]#[N+]C12CC3(/C=C/C(=O)OCc4ccccc4)OC3C1O2 (stereo not drawn) [Compound No. 10, benzyl β-substituted acrylate]" assigned_category="class 1"
